B1: ANKRD40 (parent)
chain: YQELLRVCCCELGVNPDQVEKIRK

- Variants of: B1
- Assay Notes: protein stability index of a GFP-peptide fusion (GPS, HEK-293T) (PSI 1-6); higher = more stable;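 note: lentivirally expressed fusions sorted by FACS into six bins by GFP to DsRed ratio, PSI derived from sequencing read proportions per bin multiplied by bin number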
- Condition Label: c terminus: a fixed tail appended
Recorded protein stability index, one value per entry.
Give a plain numeric answer without units written out.

Use the examples below as a reference point.
* P16A | 1.81
* L4N | 2.55
* C8Y | 2.09
* V7G | 1.48
* Q18Y | 1.19
* V7H | 2.59
* N15L | 1.39
* L5K | 2.37

Lab note: E11N gave protein stability index of 1.76

protein stability index reading for D17F : 1.87

The variant listed as I22G shows protein stability index equal to 2

C10W yielded protein stability index of 1.81

Measured protein stability index, I22F : 2.44

Lab book: protein stability index of V14Y noted as 2.13

protein stability index measured on C10P = 2.31

// sample C8P , its protein stability index was 2.12

// protein stability index value for Q18P : 1.4

Quick note, protein stability index for E3N landed at 2.09

Sample E11A ; protein stability index observed: 1.32

Looking up E3K , I see its protein stability index listed as 1.96

// protein stability index value for Q18F : 1.01

Measured protein stability index of Y1L : 1.51

// field: protein stability index; key: V14T ; value = 1.99

response.value for V14R (field: protein stability index) = 1.5

Short answer for D17S : protein stability index was 2.4

The variant identified as I22E registered its protein stability index at 2.14

Query R23E yields protein stability index of 1.6

For this variant ( R6A ), measured protein stability index is 2.02

// protein stability index value for I22H : 2.69

The recorded protein stability index for G13L is 1.62
